Where these numbers come from: patent US20240384350A1

ratio of IC50 for cells with mutant EGFR to IC50 for cells with wildtype EGFR (Mut/WT) listing for selected molecules.
# EXPERIMENTAL TARGET: EGFR A767insASV (Homo sapiens, UniProt P00533, DUP767-769)
# Construct: expressed in transfected cells; host or cells: Ba/F3 cells, retroviral pBabe-Puro vector
# ASSAY: Ba/F3 drug screening, Cell Titer Glo, IC50 Mut/WT
# Type: cell-based
# CONDITION PARAMETERS: Ex20, 72 hours
Form rule: numeric answer, no unit written next to it.

> print(dat)
                                   molecule  test.result
1  C=CC(=O)Nc1cc(Nc2nccc(-n3cc(CN(C)C)c(-c4ccccc4)n3)n2)c(OC)cc1N1CCOCC1 [Lazertinib]        10.93

Task: API: value(readout=ratio of IC50 for cells with mutant EGFR to IC50 for cells with wildtype EGFR (Mut/WT), system=EGFR A767insASV (Homo sapiens, UniProt P00533, DUP767-769)) for record COc1cc2ncnc(Nc3cccc(Cl)c3F)c2cc1OC(=O)N1CCN(C)C[C@H]1C [AZD3759]
Result: 4.154

Task: API: value(readout=ratio of IC50 for cells with mutant EGFR to IC50 for cells with wildtype EGFR (Mut/WT), system=EGFR A767insASV (Homo sapiens, UniProt P00533, DUP767-769)) for record C=CC(=O)Nc1cc(Nc2ncc(C(=O)OC(C)C)c(-c3cn(C)c4ccccc34)n2)c(OC)cc1N(C)CCN(C)C [TAK-788 (mobocertinib), mobocertinib]
Result: 1.553

Task: API: value(readout=ratio of IC50 for cells with mutant EGFR to IC50 for cells with wildtype EGFR (Mut/WT), system=EGFR A767insASV (Homo sapiens, UniProt P00533, DUP767-769)) for record CNC(=O)CN1CCC(Oc2cc3c(Nc4cccc(Cl)c4F)ncnc3cc2OC)CC1 [Sapatinib]
Result: 2.233

Task: API: value(readout=ratio of IC50 for cells with mutant EGFR to IC50 for cells with wildtype EGFR (Mut/WT), system=EGFR A767insASV (Homo sapiens, UniProt P00533, DUP767-769)) for record C=CC(=O)N1CC[C@@H](Oc2nc(Nc3ccc(N4CCC(N5CCN(C)CC5)CC4)cc3)c(C(N)=O)nc2CC)C1 [Naquotinib]
Result: 1.61
